experiment: SK-BR-3 cell growth inhibitors, pilot screen, 24 h, human (AID 572); settings: SK-BR-3 viability, CellTiter-Glo luminescence, at 10 µM, hits give low values;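 note: compound exposure lasted between 18 and 24 h rather than exactly 24 h; 100% = carrier-treated control wells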
Field: viability. Provide a value for each of the compounds that follow.
Numeric only. Scale: %

Prompt: Which measured viability value corresponds to `COc1ccc(CCNC(=O)CSc2nnc(CNc3ccc(Cl)cc3)o2)cc1OC` ?
Completion: 112

Prompt: Consider the compound `CCN(CC)S(=O)(=O)c1ccc2[nH]cc(C(=O)NCCC3=CCCCC3)c(=O)c2c1` and give its measured viability.
Completion: 138

Prompt: // query viability value for entry CCOc1ccc(N(CC(=O)NCC2CCCO2)S(=O)(=O)c2ccc(OC)c(OC)c2)cc1 (centres undefined)
Completion: 105

Prompt: Fill in the blank: the reported viability of `c1ccc(-c2csc(N3CCCCCC3)n2)cc1` is ____.
Completion: 91.5
